Assignment: determine reported growth for the given compounds.
# Test system: TK-10 renal
# MEASUREMENT_DESCRIPTION: NCI-60 one-dose screen, 48 h (100 = growth as untreated, 0 = no growth, -100 = all killed)
# PARTICULARS: 10 µM unless noted
About 83,000 compounds went through this panel and 20% of them were active in at least one assay; those are over-represented in the sample as a whole. The source made the active and inactive calls. How the source made its calls: active means growth percent below 10; inactive means the rest.

Would you please look over these solved cases?
> print(dat)
                                   compound  assay.target  parameter            result
1  CN(C)C(=O)c1cc(-c2ccc3ncnc(N4CCc5cc(F)c(Cl)cc54)c3c2)cnc1N   TK-10 renal     growth   -69.4% (active)
2  Cc1cc(C(NC(=O)C2CC3(CC(Nc4cccc5c4C(=O)N(C4CCC(=O)NC4=O)C5=O)C3)C2)c2ccc3c(c2)OC(F)(F)O3)c(O)c2ncccc12 (stereo not drawn)   TK-10 renal     growth  36.1% (inactive)

Proceeding to the next compound to report its growth.
Kindly note the recorded growth for OC(c1ccccc1)(c1ccccc1)C1CCN(c2ccc3nnc(Cl)n3n2)CC1 , which is 49.7% (inactive)

The reported numbers originate from PubChem BioAssay (NCI).
